- Target Or Test System: T1, recombinant human IL-19 (Homo sapiens, UniProt Q9UHD0)
- T1 sequence (Q9UHD0 25-177): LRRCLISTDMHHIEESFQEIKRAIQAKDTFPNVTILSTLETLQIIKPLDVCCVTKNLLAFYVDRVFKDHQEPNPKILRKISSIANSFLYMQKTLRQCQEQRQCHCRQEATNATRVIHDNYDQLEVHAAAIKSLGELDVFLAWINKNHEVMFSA
- Assay Protocol: Bio-layer interferometry (BLI) binding kinetics and affinity (Octet Red96)
- Condition Info: 25° C.; 1:1 binding model
Experimental Readout: kon

Entry under test: R_2: rabbit-derived IL-19 antibody; LCVR SEQ ID NO: 42, HCVR SEQ ID NO: 46 (antibody, V domains shown) VH: QQLEESGGGLVQPEGSLTLTCTASGFSFSSSYWICWVRQAPGKGLEWLACIDTGVSGDTYYANWAKGRFTISKTSSTTVTLQMTSLTAADTATYFCARDIFGSAIDNSLWGPGTLVTVSS VL: ADVVMTQTPASVEAAVGGTVTIKCQASESIGNALAWYQQKPGQPPKLLIYDASKLASGVPSRFKGSGSGTQFTLTISDLECADAATYYCQCHYHGSSYWDNSFGGGTEVVVK . Its kon was 428000 M⁻¹ s⁻¹
